Data provenance: PubChem BioAssay (NCI)

System: UACC-62 melanoma
TEST_DETAILS: NCI tumour cell line growth inhibition, 48 h
Reported log10 TGI values follow for various compounds
In our notation, the value equals log10 of TGI in µM.

Consider the reported log10 TGI for these compounds:
Oc1ccc2c(c1)-c1c(c3cc(O)ccc3n1CCN1CCOCC1)CC2    1.52
c1ccc2c(c1)c1c(n2CCOCCN2CCCCC2)CCCC1    1.46
O=c1c(Cl)nsnc1Cl    1.52
N/C(=N\N=C\c1ccc2c(c1)OCO2)NO    1.69
c1ccc([CH2][Sn]([CH2]c2ccccc2)([S]c2cccc3cccnc23)[S]c2cccc3cccnc23)cc1    -0.30

[ask] State the recorded log10 TGI for this entry: CC(=O)Oc1c(-c2ccccc2)[nH]c2cc([N+](=O)[O-])c(/C(Cl)=C/c3ccccc3)cc12
[reply] 1.29

[ask] State the recorded log10 TGI for this entry: Cc1cc2c(cc1-c1cc3c(cc1C)C(C(C)C)=C(O)C(=O)/C3=C\Nc1nc(-c3ccccc3)cs1)/C(=C/Nc1nc(-c3ccccc3)cs1)C(=O)C(O)=C2C(C)C
[reply] 1.55

----------
System: M14 melanoma
TEST_DETAILS: NCI tumour cell line growth inhibition, 48 h
RECORDED_METRIC: TGI

[ask] State the recorded TGI for this entry: CC1CN(CCO)CC(C)O1 (stereo unspecified)
[reply] > 100 µM

[ask] State the recorded TGI for this entry: N#Cc1c([N+](=O)[O-])cc(C(F)(F)F)cc1[N+](=O)[O-]
[reply] 17.1 µM

[ask] State the recorded TGI for this entry: O=C(NCC1Nc2ccncc2S(=O)(=O)N1)c1ccc(Br)cc1 (stereo unspecified)
[reply] 90.8 µM

[ask] State the recorded TGI for this entry: Oc1ccc2c(c1)-c1c(c3cc(O)ccc3n1CCN1CCOCC1)CC2
[reply] 50.1 µM

[ask] State the recorded TGI for this entry: Cn1cc(-c2ccc3cc(-c4ccc(CC(=O)Nc5cc(C(C)(C)C)nn5C)cc4)cnc3c2)cn1
[reply] > 100 µM

----------
Reported TGI values follow for various compounds
System: LOX IMVI melanoma
TEST_DETAILS: NCI tumour cell line growth inhibition, 48 h

Consider the reported TGI for these compounds:
CCNc1nc(N)c(C(=O)c2ccc(Cl)cc2)s1    > 100 µM
O=S(=O)(c1ccccc1)n1c(C(O)c2ccncc2)cc2ccccc21 (stereo not given)    > 100 µM
COc1ccc(NC(=O)CC/C(CC(=O)c2ccco2)=N/Nc2ccc([N+](=O)[O-])cc2[N+](=O)[O-])cc1    > 100 µM
COC(=O)C1=C(O)C(O)=C(C(=O)OC)CC1    > 100 µM
CC(=O)NNc1nc(C)c(C(/C=C/c2ccc(/C=C/C(=N\NC(=O)c3ccncc3)c3sc(NNC(C)=O)nc3C)cc2)=N/NC(=O)c2ccncc2)s1    > 100 µM

Shifting focus to the compound that follows.
[ask] State the recorded TGI for this entry: CCCC(Sc1nc(N)nc2nc[nH]c12)C(=O)O (stereo not given)
[reply] > 100 µM

----------
Test system: TK-10 renal
TEST_DETAILS: NCI tumour cell line growth inhibition, 48 h
RECORDED_METRIC: TGI

Cc1nc2c(cc1C(=O)NN)c(=O)n(C)c(=O)n2C    > 100 µM
[N-]=[N+]=Nc1ccc(S(=O)(=O)Oc2cc(OS(=O)(=O)c3ccc(N=[N+]=[N-])cc3)cc(OS(=O)(=O)c3ccc(N=[N+]=[N-])cc3)c2)cc1    > 100 µM

[ask] State the recorded TGI for this entry: Cc1c2c(n3c(nc4ccccc43)c1C#N)SCC2
[reply] > 10 µM

----------
Reported TGI values follow for various compounds
System: RPMI-8226 leukemia
TEST_DETAILS: NCI tumour cell line growth inhibition, 48 h

Consider the reported TGI for these compounds:
O=C(Nc1ccc(Cl)c(Cl)c1)Nc1ccc(Cl)c([N+](=O)[O-])c1    9.47 µM
CCOC(=O)c1ccc(-c2cc(C)[nH]n2)[nH]1    > 100 µM
CCOC(=O)c1cnc2ccc(Cl)cc2c1NCCCN(C)C    54.9 µM
COc1ccc(CN(O)C2C(CO)OC(n3cc(I)c(=O)[nH]c3=O)C2O)cc1 (configuration not stated)    > 100 µM
CC1(C)C2CCC1(CS(=O)(=O)Nc1ccccc1)C(=O)C2 (configuration not stated)    > 100 µM
O=c1ccc2nc(-c3ccccc3)nn(-c3ccccc3)c-2c1    5.32 µM
COc1ccc([C@H]2c3cc(OC)c(OC)cc3C=C(C=O)C2CO)cc1OC (some centres not stated)    > 100 µM
CC(C)NC(=O)OCc1nnn2c1C(OC(=O)NC(C)C)CC2 (configuration not stated)    > 100 µM

[ask] State the recorded TGI for this entry: COc1ccc(C(=O)CC2(O)C(=O)Nc3c(Cl)ccc(Cl)c32)cc1 (configuration not stated)
[reply] 15.5 µM

[ask] State the recorded TGI for this entry: O=C1NN=C(c2ccc(Cl)cc2)CC1C1C(=O)N(c2ccccc2)N=C1c1ccccc1 (configuration not stated)
[reply] > 100 µM

[ask] State the recorded TGI for this entry: CCOC(=O)c1cc2c(n1Cc1cccc(OC)c1)-c1oncc1CC2
[reply] > 100 µM

[ask] State the recorded TGI for this entry: CCS[C@H]1NC(=O)C1[C@H](C)O[Si](C)(C)C(C)(C)C (some centres not stated)
[reply] > 100 µM

[ask] State the recorded TGI for this entry: NNC(=O)CC(=O)Nc1ccc(Cl)cc1
[reply] > 100 µM

----------
System: SW-620 colon
TEST_DETAILS: NCI tumour cell line growth inhibition, 48 h
Reported GI50 values follow for various compounds

Consider the reported GI50 for these compounds:
C=C1C(=O)OC(CCCCCCCC)C1C(=O)O (stereo not given)    15200 nM
CCN(CC)CCn1c(=N)n(CC(O)c2ccc(Cl)c(Cl)c2)c2ccccc21 (stereo not given)    11000 nM
O=C(Nc1ccc(Cl)c(Cl)c1)Nc1ccc(Cl)c([N+](=O)[O-])c1    1100 nM
FC(F)(F)c1ccc2nc(-c3nc(-c4ccccc4)n4ccccc34)[nH]c2c1    3170 nM

[ask] State the recorded GI50 for this entry: CC[C@]1(O)C[C@@H]2CN(Cc3c([nH]c4ccccc34)[C@@](C(=O)OC)(c3cc4c(cc3OC)N(C)[C@H]3[C@@](O)(C(=O)OC)[C@H](OC(C)=O)[C@]5(CC)[C@@H]6C[C@@H]6CN6CC[C@]43[C@@H]65)C2)C1
[reply] 70.1 nM

[ask] State the recorded GI50 for this entry: Cc1ncc(C(=O)Nc2ccc(CN3CCN(C)CC3)c(C(F)(F)F)c2)cc1C#Cc1c(N)ncc2ccc(C#N)cc12
[reply] 661 nM

----------
Tested on: OVCAR-8 ovarian
TEST_DETAILS: NCI tumour cell line growth inhibition, 48 h; in the data active = GI50 below about 0.43 µM; inactive = the rest
Your reply should match one of these outcome classes. 1.0 = active, 0.0 = inactive

See these solved cases before continuing.
COc1ccc(NC(=O)c2ccc(NC3=C(Cl)C(=O)N(Cc4ccccc4)C3=O)cc2)cc1    0.0
COC12C=C/C(=C(/C(=O)OCc3ccncn3)C(=O)CCCCCCCCC3(OC)C=C/C(=C(/C(=O)OCc4ccncn4)C(=O)CCCCCCCC1)O3)O2    1.0
Cc1nc2c(cnn2-c2ccnc3c(C(F)(F)F)cccc23)c(=O)o1    0.0
O=c1ccc2nc(-c3ccccc3)nn(-c3ccccc3)c-2c1    0.0
Cc1cc(O)c2c(c1)C[C@@H](O)C1=C2C(=O)c2c(O)ccc(OC3CC(O)C(OC4CC(OC5CCC(OC6CC(O)C(OC7CC(OC8CCC(O)C(C)O8)C(O)C(C)O7)C(C)O6)C(C)O5)C(O)C(C)O4)C(C)O3)c2C1=O (stereo partly drawn)    1.0
CC(=O)O[C@@H]1C=CC(=O)C2(CC(=O)O[C@@H]2/C=C(\C)CCC=C(C)C)C1 (stereo partly drawn)    1.0
COc1cc[c]([Hg][Cl])cc1    0.0

Note: attention shifts to another entry.
[ask] Recorded test call requested for CC[C@]1(O)C[C@@H]2CN(Cc3c([nH]c4ccccc34)[C@@](C(=O)OC)(c3cc4c(cc3OC)N(C)[C@H]3[C@@](O)(C(=O)OC)[C@H](OC(C)=O)[C@]5(CC)[C@@H]6C[C@@H]6CN6CC[C@]43[C@@H]65)C2)C1
[reply] 1.0

----------
Reported log10 of TGI values follow for various molecules
System: TK-10 renal
TEST_DETAILS: NCI tumour cell line growth inhibition, 48 h
In our notation, the value equals log10 of TGI in µM.

CC(=O)Oc1c(-c2ccccc2)[nH]c2cc([N+](=O)[O-])c(/C(Cl)=C/c3ccccc3)cc12    1.81
C=C1C(=O)O[C@@H]2[C@@H]3O[C@@](C)(CC/C=C(\C)CCC[C@@H]2C)[C@H](O)C[C@@H]13    0.54
c1ccc([CH2][Sn]([CH2]c2ccccc2)([S]c2cccc3cccnc23)[S]c2cccc3cccnc23)cc1    0.03
CCCCN(CCCC)C(=Nc1ccccc1)N(CCCC)CCCC    1.54

Shifting focus to the molecule that follows.
[ask] State the recorded log10 of TGI for this entry: O=c1ccc2nc(-c3ccccc3)nn(-c3ccccc3)c-2c1
[reply] 0.43
